All values here come from the supplement of paper PMC7695840.

Test system: Staphylococcus aureus MW2 delta-mecA (mecA-)
Assay: IC50 (growth, competition assay)
Details: fluorescent label: DsRed; cefoxitin: subinhibitory
Where a name gives a salt, the structure may show the parent alone.
Reported endpoint: IC50

Compound: NC1CCN(c2c(F)cc3c(=O)c(C(=O)O)cn(C4CC4)c3c2Cl)C1 (stereo not drawn) [CLINAFOXACIN HYDROCHLORIDE]
Reported endpoint: IC50
Measured result: < 9.85 µM

Prompt: Report IC50 for O=C1C2CC=CCC2C(=O)N1SC(Cl)(Cl)Cl (stereo not drawn) please.
Completion: < 9.85 µM

Prompt: Report IC50 for CCCCCCCCCCCCCCCCOP(=O)([O-])OCC[N+](C)(C)C [Miltefosine (Hexadecylphosphocholine)] please.
Completion: 36.2 µM

###

Test system: Staphylococcus aureus MW2 delta-mecA (mecA-)
Experiment: IC50 (growth, competition assay)
Conditions: fluorescent label: DsRed; cefoxitin: subinhibitory
Reported endpoint: IC50

Sample answers from the record:
Compound: CNC(=O)c1cc(Oc2ccc(NC(=O)Nc3ccc(Cl)c(C(F)(F)F)c3)cc2)ccn1
System: Staphylococcus aureus MW2 delta-mecA (mecA-)
Reported endpoint: IC50
Measured result: < 9.85 µM
--
Compound: CN(C)[C@@H]1C(O)=C(C(N)=O)C(=O)[C@@]2(O)C(O)=C3C(=O)c4c(O)ccc(Cl)c4[C@@H](O)[C@H]3C[C@@H]12
System: Staphylococcus aureus MW2 delta-mecA (mecA-)
Reported endpoint: IC50
Measured result: < 9.85 µM
--
Compound: O=C1C(SCCO)=C(SCCO)C(=O)c2ccccc21
System: Staphylococcus aureus MW2 delta-mecA (mecA-)
Reported endpoint: IC50
Measured result: < 9.85 µM

Prompt: Report IC50 for Clc1ccc(C(c2ccc(Cl)cc2)[n+]2ccn(CC(OCc3ccc(Cl)cc3Cl)c3ccc(Cl)cc3Cl)c2)cc1 (configuration not stated) [Calmidazolium chloride] please.
Completion: < 9.85 µM

Prompt: Report IC50 for Cc1cc(N)c2ccccc2[n+]1CCCCCCCCCC[n+]1c(C)cc(N)c2ccccc21 [FLUOMIZIN] please.
Completion: < 9.85 µM

Prompt: Report IC50 for CO/N=C(\C(=O)N[C@@H]1C(=O)N2C(C(=O)O)=C(CSC(=O)c3ccco3)CS[C@H]12)c1csc(N)n1 please.
Completion: < 9.85 µM

Prompt: Report IC50 for CO/N=C(\C(=O)N[C@@H]1C(=O)N2C(C(=O)O)=C(CSc3nc(=O)c(O)nn3C)CS[C@H]12)c1csc(N)n1 [Ceftriaxone sodium] please.
Completion: < 9.85 µM

###

Each entry below carries its recorded IC50.
Tested on: Staphylococcus aureus MW2 (mecA+)
Assay: IC50 (growth, competition assay)
Conditions: fluorescent label: DsRed; cefoxitin: subinhibitory

Sample answers from the record:
Compound: Cc1ccc(C(=O)c2cc(O)c(O)c([N+](=O)[O-])c2)cc1
System: Staphylococcus aureus MW2 (mecA+)
Measured result: < 9.85 µM
//
Compound: C[CH2][Hg][S]c1ccccc1C(=O)[O-].[Na+] [MERTHIOLATE]
System: Staphylococcus aureus MW2 (mecA+)
Measured result: < 9.85 µM

Prompt: Write down the reported IC50 of CCn1cc(C(=O)O)c(=O)c2cc(F)c(N3CCNCC3)nc21 , test system: Staphylococcus aureus MW2 (mecA+).
Completion: < 9.85 µM

###

Tested on: Staphylococcus aureus MW2 (mecA+)
Experiment: IC50 (growth, competition assay)
Settings: fluorescent label: DsRed; cefoxitin: subinhibitory
pIC50: −log10 of the molar value.
Reported endpoint: pIC50

Sample answers from the record:
Molecule: C/C(=C\C(=O)Nc1ccccc1C(=O)O)c1ccc2ccccc2c1 [BIBR1532]
pIC50: > 5.01
//
Molecule: COc1c(N2CCNC(C)C2)c(F)cc2c(=O)c(C(=O)O)cn(C3CC3)c12 (stereo not drawn) [TEQUIN]
pIC50: > 5.01

Please look at the following molecule next.
Prompt: Report pIC50 for C[C@@H]1CN(c2c(F)c(N)c3c(=O)c(C(=O)O)cn(C4CC4)c3c2F)C[C@H](C)N1 [ZAGAM] please.
Completion: > 5.01

###

Tested on: Staphylococcus aureus MW2 delta-mecA (mecA-)
Experiment: IC50 (growth, competition assay)
Conditions: fluorescent label: DsRed; cefoxitin: subinhibitory
pIC50: −log10 of the molar value. Structures can show the parent of a compound that is named as a salt.
Each entry below carries its recorded pIC50.

Sample answers from the record:
Compound: COC(=O)c1c(C)c2c(c(C)c1O)OC(=O)c1c(C)c(Cl)c(O)c(Cl)c1O2 [LEOIDIN]
pIC50: > 5.01

Compound: CCn1cc(C(=O)O)c(=O)c2cc(F)c(N3CCN(C)CC3)cc21 [Pefloxacin Mesylate Dihydrate]
pIC50: > 5.01

Compound: CC[C@H]1OC(=O)[C@H](C)[C@@H](O[C@H]2C[C@@](C)(OC)[C@@H](O)[C@H](C)O2)[C@H](C)[C@@H](O[C@@H]2O[C@H](C)C[C@H](N(C)C)[C@H]2O)[C@](C)(OC)C[C@@H](C)C(=O)[C@H](C)[C@@H](O)[C@]1(C)O [BIAXIN]
pIC50: > 5.01

Prompt: Report pIC50 for [O-][n+]1ccccc1[S-].[O-][n+]1ccccc1[S-].[Zn+2] [Zinc Pyrithione] please.
Completion: > 5.01

Prompt: Report pIC50 for C[C@H]1COC2=C1C(=O)C(=O)c1c2ccc2c1CCCC2(C)C [Cryptotanshinone] please.
Completion: > 5.01

Prompt: Report pIC50 for CC(=O)Oc1cc2c(c(C)c1OC(C)=O)CC=C1[C@@]2(C)CC[C@@]2(C)C3C[C@](C)(C(=O)O)CC[C@]3(C)CC[C@]12C (stereo partly specified) [DIHYDROCELASTRYL DIACETATE] please.
Completion: > 5.01

Prompt: Report pIC50 for C=CC(=O)Nc1cccc(Sc2nc(Nc3ccc(N4CCN(C)CC4)cc3)ncc2Cl)c1 [WZ8040] please.
Completion: 5.70

Prompt: Report pIC50 for CCOC(=O)C1=C(C)NC(C)=C(C(=O)OC)C1c1cccc(Cl)c1Cl (stereo unspecified) [PLENDIL] please.
Completion: > 5.01

Prompt: Report pIC50 for CO/N=C(\C(=O)N[C@@H]1C(=O)N2C(C(=O)OCOC(=O)C(C)(C)C)=C(/C=C\c3scnc3C)CS[C@H]12)c1csc(N)n1 [SPECTRACEF] please.
Completion: > 5.01

Prompt: Report pIC50 for O=C1NC(=O)[C@@H](c2cn3c4c(cccc24)CCC3)[C@@H]1c1c[nH]c2ccccc12 [ARQ 197 (Tivantinib)] please.
Completion: 4.49

Prompt: Report pIC50 for CCN(CC)C(=S)SSC(=S)N(CC)CC [Tetraethylthiuram disulfide] please.
Completion: > 5.01

Prompt: Report pIC50 for O=C(O[C@@H]1Cc2c(O)cc(O)cc2O[C@@H]1c1cc(O)c(O)c(O)c1)c1cc(O)c(O)c(O)c1 [EPIGALLOCATECHIN-3-MONOGALLATE] please.
Completion: > 5.01

Prompt: Report pIC50 for CCCCCCCCCCCCCCCC[n+]1ccccc1 [CEPACOL] please.
Completion: > 5.01

Prompt: Report pIC50 for COc1ccc([C@@H](C)C(=O)c2ccc(O)cc2O)cc1 [ANGOLENSIN (R)] please.
Completion: > 5.01

Prompt: Report pIC50 for CCn1cc(C(=O)O)c(=O)c2cc3c(cc21)OCO3 [UTIBID] please.
Completion: 4.82

Prompt: Report pIC50 for CC[C@@H](C(=O)O)[C@@H]1O[C@@H]([C@@H](C)[C@H](O)[C@H](C)C(=O)[C@H](CC)[C@H]2O[C@]3(C=C[C@@H](O)[C@]4(CC[C@@](C)([C@H]5CC[C@](O)(CC)[C@H](C)O5)O4)O3)[C@H](C)C[C@@H]2C)[C@@H](C)C[C@@H]1C [NARASIN] please.
Completion: > 5.01

###

System: Staphylococcus aureus MW2 (mecA+)
Assay: IC50 (growth, competition assay)
Conditions: fluorescent label: DsRed; cefoxitin: subinhibitory
Reported endpoint: IC50

Sample answers from the record:
Compound: Oc1c(Br)cc(Br)c2cccnc12
IC50: < 9.85 µM
--
Compound: C[C@H]1COc2c(N3CCN(C)CC3)c(F)cc3c(=O)c(C(=O)O)cn1c23 [LEVAQUIN]
IC50: < 9.85 µM
--
Compound: Cc1onc(-c2c(Cl)cccc2Cl)c1C(=O)N[C@@H]1C(=O)N2[C@@H]1SC(C)(C)[C@@H]2C(=O)O [Dicloxacillin Sodium]
IC50: < 9.85 µM
--
Compound: CN(CC(=O)N(Cc1ccc(C2CCCCC2)cc1)c1ccc(C(=O)O)cc1)S(=O)(=O)c1c(F)c(F)c(F)c(F)c1F
IC50: < 9.85 µM
--
Compound: CC[C@H]1OC(=O)[C@H](C)[C@@H](O[C@H]2C[C@@](C)(OC)[C@@H](O)[C@H](C)O2)[C@H](C)[C@@H](O[C@@H]2O[C@H](C)C[C@H](N(C)C)[C@H]2O)[C@](C)(OC)C[C@@H](C)C(=O)[C@H](C)[C@@H](O)[C@]1(C)O
IC50: < 9.85 µM

Please look at the following compound next.
Prompt: Report IC50 for CC[C@H](C)[C@H](N)C1=N[C@H](C(=O)N[C@@H](CC(C)C)C(=O)N[C@H](CCC(=O)O)C(=O)N[C@H](C(=O)N[C@H]2CCCCNC(=O)[C@H](CC(N)=O)NC(=O)[C@@H](CC(=O)O)NC(=O)[C@H](Cc3cnc[nH]3)NC(=O)[C@@H](Cc3ccccc3)NC(=O)[C@H]([C@@H](C)CC)NC(=O)[C@@H](CCCN)NC2=O)[C@@H](C)CC)CS1 please.
Completion: > 150 µM
